Hello, the source for this data is patent US9120770B2, in case you need it.

Test system PDE4D3 (Homo sapiens, UniProt Q08499), EC50 listed for each of the compounds.

Worked cases, answers included:
COc1ncc(Cc2cnc(C#N)nc2)nc1-c1cccc(OC(F)F)c1 [Example 107]: < 100 nM
CNC(c1ccc(F)cc1)c1cnc(OC)c(-c2cccc(Cl)c2)c1 (centres unmarked) [Example 17]: 1000 to 10000 nM
COc1ncc(Cc2cnc(NCCN(C)C)nc2)cc1-c1cccc(Cl)c1 [Example 3]: 1000 to 10000 nM
COc1ncc(Cn2cnc(N)n2)cc1-c1cncc(Cl)c1 [Example 228]: 1000 to 10000 nM
COc1ncc(Cc2ccnc(N)c2)cc1-c1cccc(Cl)c1 [Example 60]: 100 to 1000 nM
CCOc1ncc(Cn2cnc(N)n2)cc1-c1ccnc(OC(F)F)c1 [Example 230]: < 100 nM
COc1ncc(Cc2cnc(C(N)=O)nc2)cc1-c1cccc(F)c1 [Example 118]: 100 to 1000 nM
COc1ncc(Cc2ccc(C(=O)NC3COC3)cc2)cc1-c1cccc(Cl)c1 [Example 243]: 1000 to 10000 nM

Lab note: next compound to report on.
Look up and report measured EC50 (PDE4D3 (Homo sapiens, UniProt Q08499)) for the following compound: COc1nc(C)c(Cn2cncn2)cc1-c1cccc(Cl)c1 [Example 112]
100 to 1000 nM
